Listed here: items and their measured composite z-score.
system: wheat germ agglutinin (Triticum aestivum), Alexa647-labelled; assay: wheat germ agglutinin binders on compound microarrays, profiling panel, artefact control for SMM control-protein annotation, biochemical, small-molecule microarray, 635/667 nm fluorescence (AID 1140); details: WGA-A647 binding, 635 nm fluorescence, higher = more signal;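 further: score merges 667 nm feature emission with signal to noise over triplicate slides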

Compound String	composite z-score
O=C(O)[C@@]1(Cc2ccccc2)N=C(c2ccc(OCCCO)cc2)O[C@H]1c1ccccc1	0.915
COCCOC(=O)N1C(=O)[C@@]2(c3cc(C#CCC(C(=O)OC)C(=O)OC)ccc31)[C@H](C(=O)N1CCCCCCC1)[C@H]1C(=O)O[C@H](c3ccccc3)[C@H](c3ccccc3)N1[C@@H]2c1ccc(OCCO)cc1	1.6
O=C(CS)NCCCCCCNC(=O)[C@H]1C[C@H]2C(=O)NCC(=O)N2[C@H]1c1ccc(O)cc1	-0.223

Provide the documented composite z-score with wheat germ agglutinin (Triticum aestivum), Alexa647-labelled as the system for O=C1[C@]2(CO)C=C(Br)[C@@H](C[C@@H]2c2ccccc2)[C@@]12CO2
0.492

Reference for the values: PubChem BioAssay
